Listed next: entries and their corresponding pIC50.
# TARGET_OF_ASSAY: Mitogen-activated protein kinase kinase kinase kinase 1 (Homo sapiens, UniProt Q92918)
# Sequence (Q92918 whole entry): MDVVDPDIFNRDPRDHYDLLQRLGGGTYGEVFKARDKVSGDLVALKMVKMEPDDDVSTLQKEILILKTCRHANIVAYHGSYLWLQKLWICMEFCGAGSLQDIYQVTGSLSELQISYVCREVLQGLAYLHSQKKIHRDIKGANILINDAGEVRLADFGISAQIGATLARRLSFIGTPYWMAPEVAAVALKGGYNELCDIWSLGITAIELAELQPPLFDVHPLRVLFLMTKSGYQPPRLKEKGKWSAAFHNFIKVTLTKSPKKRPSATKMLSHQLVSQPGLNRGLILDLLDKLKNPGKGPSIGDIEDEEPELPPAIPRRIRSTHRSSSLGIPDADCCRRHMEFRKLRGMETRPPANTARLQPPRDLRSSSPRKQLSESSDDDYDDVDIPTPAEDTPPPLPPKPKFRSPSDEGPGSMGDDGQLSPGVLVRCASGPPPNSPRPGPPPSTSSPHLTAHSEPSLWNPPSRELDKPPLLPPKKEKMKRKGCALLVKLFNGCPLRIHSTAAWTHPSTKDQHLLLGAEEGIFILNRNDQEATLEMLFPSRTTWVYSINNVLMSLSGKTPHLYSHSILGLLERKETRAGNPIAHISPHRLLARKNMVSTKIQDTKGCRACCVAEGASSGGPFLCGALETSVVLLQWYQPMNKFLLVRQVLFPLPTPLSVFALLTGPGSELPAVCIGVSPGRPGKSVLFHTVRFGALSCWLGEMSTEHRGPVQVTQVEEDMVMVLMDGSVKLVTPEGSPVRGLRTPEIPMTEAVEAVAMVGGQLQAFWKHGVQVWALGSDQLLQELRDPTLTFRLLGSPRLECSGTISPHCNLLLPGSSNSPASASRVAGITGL
# TEST_NAME: TBHPK1 IC50 Assay: Ten nanoliters of test compounds dissolved in DMSO at various concentrations were dispensed into a 384-well ProxiPlate (PerkinElmer #6008289). Five microliters of a solution of recombinant HPK1 diluted in HPK1 kinase assay buffer (50 mM BES [N,N-Bis(2-hydroxyethyl)-2-aminoethanesulfonic acid], pH 7.0; 10 mM magnesium chloride; 0.01% Triton X-100; 1 mM dithiothreitol; 0.01% bovine serum albumin; 0.1 mM sodium orthovanadate) was added to the compound-containing plate and was incubated for 15 minutes at 25° C. Five microliters of a mixture of ATP (Sigma-Aldrich #A6559) and peptide substrate STK S1 (Cisbio #61ST1BLC) diluted in HPK1 kinase assay buffer was then added to start the reaction. Final concentrations were 0.15 nM for HPK1, 10 μM for ATP, and 1 μM for the STK S1 peptide substrate. The reaction mixture was incubated at 25° C. for 3 hours and was stopped with the addition of 10 μl of an EDTA (Ethylenediaminetetraacetic acid)-containing detection buffer (Cisbio #62SDBRDF) supplemented with Europium cryptate-labeled anti-phospho-serine/threonine antibodies (Cisbio #62ST1PEJ) and XL665-labeled streptavidin (Cisbio #610SAXLG). The mixture was incubated for 16 hours at room temperature and peptide phosphorylation was measured by time-resolved fluorescence energy transfer (665 nm/620 nm) on an Envision plate reader (PerkinElmer).
// field semantics: pIC50 = negative decimal log of concentration (mol/L)

CC(C)n1cnc2cc(-c3cnc4c(c3)N([C@H]3C[C@](C)(N5CCC6CC6C5)C3)C(=O)C4(C)C)nc(Nc3cc(C(=O)NC4(CF)CC4)c(Cl)c(F)c3F)c21 (some centres not stated) ... 10.05

// pIC50 lookup, key: CNC(=O)c1cc(Nc2nc(-c3ccc4c(c3)N([C@H]3C[C@@H](N5CC[C@H](C(F)F)C5)C3)C(=O)C4(C)C)cc3ncn(C(C)C)c23)ccc1C
9.70
